Source of measurements: patent US20190374533A1

# Tested on: fecal water content
# method: Pharmacodynamic model: effect of test compounds on fecal water content
# Format: in vivo, rat
# condition: female Sprague Dawley rats, 3 mg/kg oral, feces collected 16 hrs, mean of 6
Where a name gives a salt, the structure may show the parent alone.
reported_metric: % Fecal water (%)
Field: numeric (%). Do not append units.

Known % Fecal water results, listed for orientation:
{"molecule": "CN1Cc2c(Cl)cc(Cl)cc2C(c2ccc(S(=O)(=O)NCCOCCOCCNC(=O)NCCCCNC(=O)NCCOCCOCCNS(=O)(=O)c3ccc(C4CN(C)Cc5c(Cl)cc(Cl)cc54)cc3)cc2)C1 (stereo not shown) [Example 238]", "% Fecal water [%]": 60}
{"molecule": "CN1Cc2c(Cl)cc(Cl)cc2C(c2ccc(S(=O)(=O)NCCOCCOCCNC(=O)CCC(=O)NCCOCCOCCNS(=O)(=O)c3ccc(C4CN(C)Cc5c(Cl)cc(Cl)cc54)cc3)cc2)C1 (stereo not shown) [Example 177]", "% Fecal water [%]": 60}
{"molecule": "CN1Cc2c(Cl)cc(Cl)cc2[C@H](c2ccc(S(=O)(=O)NCCOCCOCCNC(=O)COCC(=O)NCCOCCOCCNS(=O)(=O)c3ccc([C@@H]4CN(C)Cc5c(Cl)cc(Cl)cc54)cc3)cc2)C1 (single isomer, unassigned) [Example 201, bis-hydrochloride salt]", "% Fecal water [%]": 63}

// next entry
Lookup: # input molecule: CN1Cc2c(Cl)cc(Cl)cc2[C@H](c2ccc(S(=O)(=O)NCCOCCOCCNC(=O)CCC(=O)NCCOCCOCCNS(=O)(=O)c3ccc([C@@H]4CN(C)Cc5c(Cl)cc(Cl)cc54)cc3)cc2)C1 (single isomer, unassigned) [Example 200, bis-hydrochloride salt] ; wanted: its % Fecal water
Found: 62

---

# target_desc: rat NHE-3 (Rattus norvegicus, UniProt P26433)
# Construct: expressed in transfected cells; host or cells: Opossum kidney (OK) cells (ATCC), electroporated
# Sequence (P26433 29-831): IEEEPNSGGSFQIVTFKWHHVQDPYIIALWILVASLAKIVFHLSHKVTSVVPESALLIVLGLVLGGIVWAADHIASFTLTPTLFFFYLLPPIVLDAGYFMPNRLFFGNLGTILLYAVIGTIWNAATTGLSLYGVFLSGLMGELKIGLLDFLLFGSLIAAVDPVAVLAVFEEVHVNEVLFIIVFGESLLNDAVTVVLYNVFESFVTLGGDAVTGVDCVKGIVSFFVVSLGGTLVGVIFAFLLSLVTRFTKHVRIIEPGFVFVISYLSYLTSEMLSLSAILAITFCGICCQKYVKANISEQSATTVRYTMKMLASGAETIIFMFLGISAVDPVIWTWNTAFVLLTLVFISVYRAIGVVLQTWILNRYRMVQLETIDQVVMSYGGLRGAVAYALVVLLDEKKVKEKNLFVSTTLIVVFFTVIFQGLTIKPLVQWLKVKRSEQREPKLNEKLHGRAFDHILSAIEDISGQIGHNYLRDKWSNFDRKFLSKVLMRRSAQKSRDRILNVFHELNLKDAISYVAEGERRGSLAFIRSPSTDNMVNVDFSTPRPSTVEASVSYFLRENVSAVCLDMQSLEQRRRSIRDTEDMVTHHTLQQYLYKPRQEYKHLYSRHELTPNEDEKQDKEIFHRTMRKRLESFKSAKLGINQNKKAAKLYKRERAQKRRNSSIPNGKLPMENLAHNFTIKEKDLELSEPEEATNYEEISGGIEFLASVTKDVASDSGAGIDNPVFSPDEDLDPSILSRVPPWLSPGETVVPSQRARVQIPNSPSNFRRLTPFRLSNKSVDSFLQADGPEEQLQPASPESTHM
# method: Cell-based assay of NHE-3 activity (Pharmacological Test Example 1)
# condition: OK cells expressing rat NHE-3; 0-30 uM test compound, 5 uM EIPA; read-out: rat NHE-3 Average pIC50 (converted)
Counter-ions that a name gives are not always drawn.
Here the recorded IC50 is given for each entry.

Known IC50 results, listed for orientation:
{"molecule": "CN1Cc2c(Cl)cc(Cl)cc2C(c2cccc(S(=O)(=O)NCCOCCOCCOCCNC(=O)Nc3ccc(NC(=O)NCCOCCOCCOCCNS(=O)(=O)c4cccc(C5CN(C)Cc6c(Cl)cc(Cl)cc65)c4)cc3)c2)C1 (centres unmarked)", "target_desc": "rat NHE-3 (Rattus norvegicus, UniProt P26433)", "IC50": "1000 to 10000 nM"}
{"molecule": "CN1Cc2c(Cl)cc(Cl)cc2[C@H](c2ccc(S(=O)(=O)NCCOCCOCCNC(=O)COCC(=O)NCCOCCOCCNS(=O)(=O)c3ccc([C@@H]4CN(C)Cc5c(Cl)cc(Cl)cc54)cc3)cc2)C1 (single isomer, unassigned) [Example 201, bis-hydrochloride salt]", "target_desc": "rat NHE-3 (Rattus norvegicus, UniProt P26433)", "IC50": "< 100 nM"}
{"molecule": "C/C(=C\\c1cc(F)c(Oc2ccc(S(=O)(=O)NCCOCCOCCOCCNC(=O)NCCOCCOCCOCCNS(=O)(=O)c3ccc(Oc4c(F)cc(/C=C(\\C)C(=O)N=C(N)N)cc4F)cc3)cc2)c(F)c1)C(=O)N=C(N)N", "target_desc": "rat NHE-3 (Rattus norvegicus, UniProt P26433)", "IC50": "100 to 1000 nM"}
{"molecule": "CN1Cc2c(Cl)cc(Cl)cc2[C@H](c2cccc(S(=O)(=O)NCCOCCOCCNC(=O)NCCCCNC(=O)NCCOCCOCCNS(=O)(=O)c3cccc([C@@H]4CN(C)Cc5c(Cl)cc(Cl)cc54)c3)c2)C1 (single isomer, unassigned) [Example 202, bis-hydrochloride salt]", "target_desc": "rat NHE-3 (Rattus norvegicus, UniProt P26433)", "IC50": "< 100 nM"}

// next entry
Lookup: # input molecule: CN1Cc2c(Cl)cc(Cl)cc2C(c2cccc(S(=O)(=O)NCCOCCOCCOCCNS(=O)(=O)c3cccc(S(=O)(=O)NCCOCCOCCOCCNS(=O)(=O)c4cccc(C5CN(C)Cc6c(Cl)cc(Cl)cc65)c4)c3)c2)C1 (centres unmarked) ; wanted: its IC50
Found: 1000 to 10000 nM

---

# method: Parallel artificial membrane permeability assay (PAMPA)
# condition: pH 7.4
reported_metric: Papp A→B at 3 h, 20 uM (×10⁻⁶ cm/s)
Field: numeric (×10⁻⁶ cm/s). Do not append units.

{"molecule": "CN1Cc2c(Cl)cc(Cl)cc2C(c2cccc(S(=O)(=O)NCCP(=O)(O)O)c2)C1 (stereo not shown)", "Papp A→B at 3 h, 20 uM (×10⁻⁶ cm/s)": 0.53}
{"molecule": "CN1Cc2c(Cl)cc(Cl)cc2C(c2cccc(S(=O)(=O)Nc3ccc(CP(=O)(O)O)cc3)c2)C1 (stereo not shown)", "Papp A→B at 3 h, 20 uM (×10⁻⁶ cm/s)": 0.8}
{"molecule": "NC(N)=Nc1nc(-c2ccc(N3CCN(CCCC(=O)O)CC3)cc2)c2cc(Cl)ccc2n1", "Papp A→B at 3 h, 20 uM (×10⁻⁶ cm/s)": 0.27}

// next entry
Lookup: # input molecule: CN1Cc2c(Cl)cc(Cl)cc2C(c2ccc(S(=O)(=O)N(CCC(=O)O)CCC(=O)O)cc2)C1 (stereo not shown) ; wanted: its Papp A→B at 3 h, 20 uM
Found: 0.05

---

# method: Parallel artificial membrane permeability assay (PAMPA)
# condition: pH 7.4
reported_metric: Papp A→B at 3 h, 20 uM (×10⁻⁶ cm/s)
Field: numeric (×10⁻⁶ cm/s). Do not append units.

Known Papp A→B at 3 h, 20 uM results, listed for orientation:
{"molecule": "C/C(=C\\c1cc(F)c(Oc2ccc(S(=O)(=O)NCc3ccc(CP(=O)(O)O)cc3)cc2)c(F)c1)C(=O)N=C(N)N [Example 52]", "Papp A→B at 3 h, 20 uM, ×10⁻⁶ cm/s": 1.61}
{"molecule": "CN1Cc2c(Cl)cc(Cl)cc2C(c2cccc(S(=O)(=O)N(CC(=O)O)CP(=O)(O)O)c2)C1 (stereo not shown) [Example 8]", "Papp A→B at 3 h, 20 uM, ×10⁻⁶ cm/s": 0.2}

Lookup: # input molecule: C/C(=C\c1cc(F)c(Oc2ccc(S(=O)(=O)NC(=O)NCCN(C)C)cc2)c(F)c1)C(=O)N=C(N)N [Example 75] ; wanted: its Papp A→B at 3 h, 20 uM
Found: 0.4

---

Here the recorded Papp A→B at 3 h, 20 uM is given for each entry.
# method: Parallel artificial membrane permeability assay (PAMPA)
# condition: pH 7.4
Field: numeric (×10⁻⁶ cm/s). Do not append units.

Known Papp A→B at 3 h, 20 uM results, listed for orientation:
{"compound": "C/C(=C\\c1cc(F)c(Oc2ccc(S(=O)(=O)NCP(=O)(O)O)cc2)c(F)c1)C(=O)N=C(N)N", "Papp A→B at 3 h, 20 uM / ×10⁻⁶ cm/s": 0.5}
{"compound": "CN1Cc2c(Cl)cc(Cl)cc2C(c2cccc(NC(=O)N[C@@H](CC(=O)O)C(=O)O)c2)C1 (stereo partly shown)", "Papp A→B at 3 h, 20 uM / ×10⁻⁶ cm/s": 0.17}

Lookup: # input compound: CN1Cc2c(Cl)cc(Cl)cc2C(c2ccc(NC(=O)N[C@@H](CCC(=O)O)C(=O)O)cc2)C1 (stereo partly shown) ; wanted: its Papp A→B at 3 h, 20 uM
Found: 0.2

Lookup: # input compound: C/C(=C\c1cc(F)c(Oc2ccc(S(=O)(=O)NC(CC(=O)O)C(=O)O)cc2)c(F)c1)C(=O)N=C(N)N (stereo not shown) ; wanted: its Papp A→B at 3 h, 20 uM
Found: 0.1

Lookup: # input compound: CN1Cc2c(Cl)cc(Cl)cc2C(c2ccc(S(=O)(=O)N(CC(=O)O)CP(=O)(O)O)cc2)C1 (stereo not shown) ; wanted: its Papp A→B at 3 h, 20 uM
Found: 0.2

Lookup: # input compound: C/C(=C\c1cc(F)c(Oc2ccc(S(=O)(=O)NCCOCCOCCOCCNS(=O)(=O)c3ccc(Oc4c(F)cc(/C=C(\C)C(=O)N=C(N)N)cc4F)cc3)cc2)c(F)c1)C(=O)N=C(N)N ; wanted: its Papp A→B at 3 h, 20 uM
Found: 0.1

Lookup: # input compound: CN1Cc2c(Cl)cc(Cl)cc2C(c2ccc(NS(=O)(=O)NCCP(=O)([O-])[O-])cc2)C1.[Na+].[Na+] (stereo not shown) ; wanted: its Papp A→B at 3 h, 20 uM
Found: 0.56

---

Here the recorded IC50 is given for each entry.
# target_desc: rat NHE-3 (Rattus norvegicus, UniProt P26433)
# Construct: expressed in transfected cells; host or cells: Opossum kidney (OK) cells (ATCC), electroporated
# method: Cell-based assay of NHE-3 activity (Pharmacological Test Example 1)
# condition: OK cells expressing rat NHE-3; 0-30 uM test compound, 5 uM EIPA; read-out: rat NHE-3 Average pIC50 (converted)
Structures can show the parent of a compound that is named as a salt.

{"compound": "C/C(=C\\c1cc(F)c(Oc2ccc(S(=O)(=O)NCCOCCOCCOCCNC(=O)CCOCCOCCOCCOCCOCCOCCOCCOCCOCCC(=O)NCCOCCOCCOCCNS(=O)(=O)c3ccc(Oc4c(F)cc(/C=C(\\C)C(=O)N=C(N)N)cc4F)cc3)cc2)c(F)c1)C(=O)N=C(N)N", "target_desc": "rat NHE-3 (Rattus norvegicus, UniProt P26433)", "IC50": "100 to 1000 nM"}
{"compound": "CN1Cc2c(Cl)cc(Cl)cc2C(c2cccc(S(=O)(=O)NCCOCCOCCOCCn3cc(COCc4cn(CCOCCOCCOCCNS(=O)(=O)c5cccc(C6CN(C)Cc7c(Cl)cc(Cl)cc76)c5)nn4)nn3)c2)C1 (stereo not drawn)", "target_desc": "rat NHE-3 (Rattus norvegicus, UniProt P26433)", "IC50": "< 100 nM"}

Lookup: Please state recorded IC50 (tested on rat NHE-3 (Rattus norvegicus, UniProt P26433)) of CN1Cc2c(Cl)cc(Cl)cc2[C@H](c2cccc(S(=O)(=O)NCCOCCOCCOCCNC(=O)NCCCCNC(=O)NCCOCCOCCOCCNS(=O)(=O)c3cccc([C@@H]4CN(C)Cc5c(Cl)cc(Cl)cc54)c3)c2)C1 (single isomer, unassigned)
Found: < 100 nM

Lookup: Please state recorded IC50 (tested on rat NHE-3 (Rattus norvegicus, UniProt P26433)) of CN1Cc2c(Cl)cc(Cl)cc2C(c2cccc(S(=O)(=O)NCCOCCOCCOCCNC(=O)c3ccc(C(=O)NCCOCCOCCOCCNS(=O)(=O)c4cccc(C5CN(C)Cc6c(Cl)cc(Cl)cc65)c4)cc3)c2)C1 (stereo not drawn)
Found: < 100 nM

Lookup: Please state recorded IC50 (tested on rat NHE-3 (Rattus norvegicus, UniProt P26433)) of CN1Cc2c(Cl)cc(Cl)cc2[C@H](c2ccc(S(=O)(=O)NCCOCCOCCOCCNC(=O)NCCCCNC(=O)NCCOCCOCCOCCNS(=O)(=O)c3ccc([C@@H]4CN(C)Cc5c(Cl)cc(Cl)cc54)cc3)cc2)C1 (single isomer, unassigned)
Found: < 100 nM

Lookup: Please state recorded IC50 (tested on rat NHE-3 (Rattus norvegicus, UniProt P26433)) of CN1Cc2c(Cl)cc(Cl)cc2[C@H](c2cccc(S(=O)(=O)NCCOCCOCCNC(=O)Nc3ccc(NC(=O)NCCOCCOCCNS(=O)(=O)c4cccc([C@@H]5CN(C)Cc6c(Cl)cc(Cl)cc65)c4)cc3)c2)C1 (single isomer, unassigned) [Example 203, bis-hydrochloride salt]
Found: < 100 nM
